# assayedTarget: Kappa-type opioid receptor (Homo sapiens) (UniProt P41145)
# Sequence (P41145 whole entry, looked up): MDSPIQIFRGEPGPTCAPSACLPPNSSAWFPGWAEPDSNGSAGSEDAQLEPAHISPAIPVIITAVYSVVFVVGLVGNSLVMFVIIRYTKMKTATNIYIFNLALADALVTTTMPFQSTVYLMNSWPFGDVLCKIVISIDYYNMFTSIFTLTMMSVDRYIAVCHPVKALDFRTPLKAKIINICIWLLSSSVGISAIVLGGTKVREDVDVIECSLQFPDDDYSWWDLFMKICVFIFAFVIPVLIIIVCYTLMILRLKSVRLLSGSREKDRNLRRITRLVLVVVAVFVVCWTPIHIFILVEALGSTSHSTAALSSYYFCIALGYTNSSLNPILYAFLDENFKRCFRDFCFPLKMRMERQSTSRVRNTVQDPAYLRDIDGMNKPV
# method: kappa opioid receptor blockers – cell-based, luminescence, uHTS (AID 1778)
# experimentalSetup: KOR beta-arrestin recruitment, antagonist mode; at 10 µM unless noted
Among all 290,000 compounds or so, about 260 (0.09%) were called active. Rule as the data show it: active = inhibition above about 50%; inactive = the rest. The sample as a whole holds a higher share of actives than the screen did. Entries with a potency or affinity are not part of this list.
// classify into active, inactive

Solved entries:
compound: CCN1CCN(CC(=O)N2N=C(c3cccs3)CC2c2ccc(F)cc2)C(=O)C1=O (centres undefined)
assayedTarget: Kappa-type opioid receptor (Homo sapiens) (UniProt P41145)
discreteLabel: inactive
--
compound: COC(=O)C1c2ccccc2-c2ccccc21
assayedTarget: Kappa-type opioid receptor (Homo sapiens) (UniProt P41145)
discreteLabel: inactive
--
compound: Cc1ccc(C)c(N=Nc2ccc(O)c3ncccc23)c1
assayedTarget: Kappa-type opioid receptor (Homo sapiens) (UniProt P41145)
discreteLabel: active
--
compound: CCOC(=O)C(CSCC(=O)c1ccc(Br)cc1)NC(=O)OC(C)(C)C (centres undefined)
assayedTarget: Kappa-type opioid receptor (Homo sapiens) (UniProt P41145)
discreteLabel: inactive
--
compound: CCC(=O)Nc1ccc(NC(=O)c2cccc3ccccc23)cc1
assayedTarget: Kappa-type opioid receptor (Homo sapiens) (UniProt P41145)
discreteLabel: inactive
--
compound: Oc1ccc(N=Nc2ccccc2C(F)(F)F)c2cccnc12
assayedTarget: Kappa-type opioid receptor (Homo sapiens) (UniProt P41145)
discreteLabel: inactive

Q) Field: outcome | Entry: `CCCCN(CCCNC(=O)C1CCN(S(=O)(=O)N2CCOCC2)CC1)Cc1ccccc1`
A) inactive

Q) Field: outcome | Entry: `O=C(OCn1ncc(Cl)c(Cl)c1=O)c1ccc(F)cc1`
A) inactive

Q) Field: outcome | Entry: `Oc1c(CN2CCc3ccccc3C2)cc(Cl)c2cccnc12`
A) inactive
